Just for reference, ChEMBL document CHEMBL5252516 is where these values come from.

# assay name: Drug uptake in iv dosed BALB/c athymic nude mouse tumor xenografted with human LNCaP cells treated with 68Ga-labeled compound measured upto 120 mins by microPET imaging analysis
# Type: ADME, organism-based
# condition label: in vivo, 2 h
assay readout: Drug uptake

{"smiles entry": "O=C(O)CC[C@H](NC(=O)N[C@@H](CCCCNC(=O)CCCCCNC(=O)c1ccc(CNC(=O)CN2CCN(CC(=O)O)CCN(CC(=O)O)CCN(CC(=O)O)CC2)cc1)C(=O)O)C(=O)O", "result value": "Not Active"}
{"smiles entry": "O=C(O)CC[C@H](NC(=O)N[C@@H](CCCCNC(=O)[C@H]1CC[C@H](CNC(=O)[C@H]2CC[C@H](CNC(=O)[C@H]3CC[C@H](CNC(=O)CN4CCN(CC(=O)O)CCN(CC(=O)O)CCN(CC(=O)O)CC4)CC3)CC2)CC1)C(=O)O)C(=O)O", "result value": "Not Active"}

* * *

# assay name: Distribution coefficient, logD of the compound at pH 7.4 in n-octanol/0.1 M HEPES by shake flask method
# Format: physicochemical

{"compound": "O=C(O)CC[C@H](NC(=O)N[C@@H](CCCCNC(=O)[C@H](Cc1ccc(-c2ccccc2)cc1)NC(=O)CN1CCN(CC(=O)O)CCN(CC(=O)O)CCN(CC(=O)O)CC1)C(=O)O)C(=O)O", "logD": -1.98}
{"compound": "O=C(O)CC[C@H](NC(=O)N[C@@H](CCCCNC(=O)[C@@H](Cc1ccc2ccccc2c1)NC(=O)[C@H]1CC[C@H](CNC(=O)CN2CCN(CC(=O)O)CCN(CC(=O)O)CCN(CC(=O)O)CC2)CC1)C(=O)O)C(=O)O", "logD": -2.02}
{"compound": "O=C(O)CC[C@H](NC(=O)N[C@@H](CCCCNC(=O)[C@H]1CC[C@H](CNC(=O)c2ccc(CNC(=O)CN3CCN(CC(=O)O)CCN(CC(=O)O)CCN(CC(=O)O)CC3)cc2)CC1)C(=O)O)C(=O)O", "logD": -1.43}
{"compound": "O=C(O)CC[C@H](NC(=O)N[C@@H](CCCCNC(=O)[C@H](Cc1ccc2ccccc2c1)NC(=O)CN1CCN(CC(=O)O)CCN(CC(=O)O)CCN(CC(=O)O)CC1)C(=O)O)C(=O)O", "logD": -2.03}
{"compound": "O=C(O)CC[C@H](NC(=O)N[C@@H](CCCCNC(=O)[C@H](Cc1ccc2ccccc2c1)NC(=O)CCCCCNC(=O)CN1CCN(CC(=O)O)CCN(CC(=O)O)CCN(CC(=O)O)CC1)C(=O)O)C(=O)O", "logD": -1.88}
{"compound": "O=C(O)CC[C@H](NC(=O)N[C@@H](CCCCNC(=O)c1ccc(CNC(=O)c2ccc(CNC(=O)c3ccc(CNC(=O)CN4CCN(CC(=O)O)CCN(CC(=O)O)CCN(CC(=O)O)CC4)cc3)cc2)cc1)C(=O)O)C(=O)O", "logD": -2.06}
{"compound": "O=C(O)CCc1ccc(O)c(CN(CCN(CC(=O)O)Cc2cc(CCC(=O)NCCCCCC(=O)NCCCC[C@H](NC(=O)N[C@@H](CCC(=O)O)C(=O)O)C(=O)O)ccc2O)CC(=O)O)c1 [GOZETOTIDE]", "logD": -1.71}
{"compound": "O=C(O)CC[C@H](NC(=O)N[C@@H](CCCCNC(=O)[C@H]1CC[C@H](CNC(=O)[C@H]2CC[C@H](CNC(=O)[C@H]3CC[C@H](CNC(=O)CN4CCN(CC(=O)O)CCN(CC(=O)O)CCN(CC(=O)O)CC4)CC3)CC2)CC1)C(=O)O)C(=O)O", "logD": -1.98}
{"compound": "O=C(O)CC[C@H](NC(=O)N[C@@H](CCCCNC(=O)[C@H]1CC[C@H](CNC(=O)CN2CCN(CC(=O)O)CCN(CC(=O)O)CCN(CC(=O)O)CC2)CC1)C(=O)O)C(=O)O", "logD": -0.91}
{"compound": "O=C(O)CC[C@H](NC(=O)N[C@@H](CCCCNC(=O)c1ccc(CNC(=O)CN2CCN(CC(=O)O)CCN(CC(=O)O)CCN(CC(=O)O)CC2)cc1)C(=O)O)C(=O)O", "logD": -1.99}

* * *

# target or test system: Glutamate carboxypeptidase 2 (Homo sapiens, UniProt Q04609)
# Sequence (Q04609 whole entry, looked up): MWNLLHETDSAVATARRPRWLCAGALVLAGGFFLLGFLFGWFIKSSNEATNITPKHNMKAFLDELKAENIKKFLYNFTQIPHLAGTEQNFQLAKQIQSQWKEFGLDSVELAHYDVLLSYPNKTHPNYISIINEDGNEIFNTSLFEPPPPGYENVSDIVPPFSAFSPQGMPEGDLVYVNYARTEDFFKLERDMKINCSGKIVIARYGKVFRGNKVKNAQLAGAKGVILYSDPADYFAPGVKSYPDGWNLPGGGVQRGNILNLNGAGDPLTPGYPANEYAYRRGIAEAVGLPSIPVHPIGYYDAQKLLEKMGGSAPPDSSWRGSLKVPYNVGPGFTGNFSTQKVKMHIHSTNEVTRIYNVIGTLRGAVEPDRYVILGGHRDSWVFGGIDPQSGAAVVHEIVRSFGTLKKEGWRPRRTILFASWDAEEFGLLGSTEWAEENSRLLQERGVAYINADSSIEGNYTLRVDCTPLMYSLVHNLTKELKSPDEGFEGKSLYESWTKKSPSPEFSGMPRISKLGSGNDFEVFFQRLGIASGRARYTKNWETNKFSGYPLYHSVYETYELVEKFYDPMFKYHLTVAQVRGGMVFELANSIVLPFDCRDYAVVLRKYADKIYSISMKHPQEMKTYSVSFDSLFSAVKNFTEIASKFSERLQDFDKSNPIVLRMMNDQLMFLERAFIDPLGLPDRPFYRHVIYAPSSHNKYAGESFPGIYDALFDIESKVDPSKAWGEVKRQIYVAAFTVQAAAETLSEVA
# assay name: Inhibition of PSMA in human LNCaP cells assessed as cell surface binding per 10^6 cells using 177Lu-labeled compound after 45 mins by gamma counting analysis
# Format: cell-based
specific cell surface binding (% of applied activity per 10^6 cells) less than 9% is 1; specific cell surface binding (% of applied activity per 10^6 cells) greater than or equal to 9% is 0.

{"smiles entry": "O=C(O)CC[C@H](NC(=O)N[C@@H](CCCCNC(=O)c1ccc(CNC(=O)c2ccc(CNC(=O)c3ccc(CNC(=O)c4ccc(CNC(=O)CN5CCN(CC(=O)O)CCN(CC(=O)O)CCN(CC(=O)O)CC5)cc4)cc3)cc2)cc1)C(=O)O)C(=O)O", "target or test system": "Glutamate carboxypeptidase 2 (Homo sapiens, UniProt Q04609)", "class name": 0}
{"smiles entry": "O=C(O)CC[C@H](NC(=O)N[C@@H](CCCCNC(=O)[C@H](Cc1ccc(-c2ccccc2)cc1)NC(=O)CN1CCN(CC(=O)O)CCN(CC(=O)O)CCN(CC(=O)O)CC1)C(=O)O)C(=O)O", "target or test system": "Glutamate carboxypeptidase 2 (Homo sapiens, UniProt Q04609)", "class name": 1}
{"smiles entry": "O=C(O)CC[C@H](NC(=O)N[C@@H](CCCCNC(=O)[C@@H](Cc1ccc2ccccc2c1)NC(=O)[C@H]1CC[C@H](CNC(=O)CN2CCN(CC(=O)O)CCN(CC(=O)O)CCN(CC(=O)O)CC2)CC1)C(=O)O)C(=O)O", "target or test system": "Glutamate carboxypeptidase 2 (Homo sapiens, UniProt Q04609)", "class name": 0}
{"smiles entry": "O=C(O)CC[C@H](NC(=O)N[C@@H](CCCCNC(=O)[C@H](Cc1cccc2ccccc12)NC(=O)[C@H]1CC[C@H](CNC(=O)CN2CCN(CC(=O)O)CCN(CC(=O)O)CCN(CC(=O)O)CC2)CC1)C(=O)O)C(=O)O", "target or test system": "Glutamate carboxypeptidase 2 (Homo sapiens, UniProt Q04609)", "class name": 1}
{"smiles entry": "O=C(O)CC[C@H](NC(=O)N[C@@H](CCCCNC(=O)c1ccc(CNC(=O)CN2CCN(CC(=O)O)CCN(CC(=O)O)CCN(CC(=O)O)CC2)cc1)C(=O)O)C(=O)O", "target or test system": "Glutamate carboxypeptidase 2 (Homo sapiens, UniProt Q04609)", "class name": 1}

* * *

# target or test system: Glutamate carboxypeptidase 2 (Homo sapiens)
# assay name: Inhibition of PSMA in human LNCaP cells assessed as cell surface binding per 10^6 cells using 177Lu-labeled compound after 45 mins by gamma counting analysis
# Assay type: cell-based
// specific cell surface binding (% of applied activity per 10^6 cells) lookup, one value per entry
assay readout: specific cell surface binding (% of applied activity per 10^6 cells) (%)

{"smiles entry": "O=C(O)CC[C@H](NC(=O)N[C@@H](CCCCNC(=O)CCCCCNC(=O)c1ccc(CNC(=O)CN2CCN(CC(=O)O)CCN(CC(=O)O)CCN(CC(=O)O)CC2)cc1)C(=O)O)C(=O)O", "target or test system": "Glutamate carboxypeptidase 2 (Homo sapiens)", "units text": "%", "result value": 17.7}
{"smiles entry": "O=C(O)CC[C@H](NC(=O)N[C@@H](CCCCNC(=O)[C@H](Cc1ccc2ccccc2c1)NC(=O)CCCCCNC(=O)CN1CCN(CC(=O)O)CCN(CC(=O)O)CCN(CC(=O)O)CC1)C(=O)O)C(=O)O", "target or test system": "Glutamate carboxypeptidase 2 (Homo sapiens)", "units text": "%", "result value": 9.07}
{"smiles entry": "O=C(O)CC[C@H](NC(=O)N[C@@H](CCCCNC(=O)c1ccc(CNC(=O)c2ccc(CNC(=O)CN3CCN(CC(=O)O)CCN(CC(=O)O)CCN(CC(=O)O)CC3)cc2)cc1)C(=O)O)C(=O)O", "target or test system": "Glutamate carboxypeptidase 2 (Homo sapiens)", "units text": "%", "result value": 14.3}
{"smiles entry": "O=C(O)CC[C@H](NC(=O)N[C@@H](CCCCNC(=O)[C@H]1CC[C@H](CNC(=O)[C@H](Cc2ccc3ccccc3c2)NC(=O)CN2CCN(CC(=O)O)CCN(CC(=O)O)CCN(CC(=O)O)CC2)CC1)C(=O)O)C(=O)O", "target or test system": "Glutamate carboxypeptidase 2 (Homo sapiens)", "units text": "%", "result value": 1.09}

* * *

# assay name: Drug uptake in iv dosed BALB/c athymic nude mouse tumor xenografted with human LNCaP cells treated with 68Ga-labeled compound measured upto 120 mins by microPET imaging analysis
# Format: ADME, organism-based
# condition label: in vivo, 2 h

{"smiles entry": "O=C(O)CC[C@H](NC(=O)N[C@@H](CCCCNC(=O)c1ccc(CNC(=O)CN2CCN(CC(=O)O)CCN(CC(=O)O)CCN(CC(=O)O)CC2)cc1)C(=O)O)C(=O)O", "Drug uptake": "Active"}
{"smiles entry": "O=C(O)CC[C@H](NC(=O)N[C@@H](CCCCNC(=O)c1ccc(CNC(=O)c2ccc(CNC(=O)c3ccc(CNC(=O)c4ccc(CNC(=O)CN5CCN(CC(=O)O)CCN(CC(=O)O)CCN(CC(=O)O)CC5)cc4)cc3)cc2)cc1)C(=O)O)C(=O)O", "Drug uptake": "Active"}
